The measured values listed here are drawn from a collection of fitness landscapes (doi:10.1126/science.1257360).

Entries and their enrichment ratio
B1: PhoQ; a variant is named by its letters at X, in order, P23837 (parent)
chain: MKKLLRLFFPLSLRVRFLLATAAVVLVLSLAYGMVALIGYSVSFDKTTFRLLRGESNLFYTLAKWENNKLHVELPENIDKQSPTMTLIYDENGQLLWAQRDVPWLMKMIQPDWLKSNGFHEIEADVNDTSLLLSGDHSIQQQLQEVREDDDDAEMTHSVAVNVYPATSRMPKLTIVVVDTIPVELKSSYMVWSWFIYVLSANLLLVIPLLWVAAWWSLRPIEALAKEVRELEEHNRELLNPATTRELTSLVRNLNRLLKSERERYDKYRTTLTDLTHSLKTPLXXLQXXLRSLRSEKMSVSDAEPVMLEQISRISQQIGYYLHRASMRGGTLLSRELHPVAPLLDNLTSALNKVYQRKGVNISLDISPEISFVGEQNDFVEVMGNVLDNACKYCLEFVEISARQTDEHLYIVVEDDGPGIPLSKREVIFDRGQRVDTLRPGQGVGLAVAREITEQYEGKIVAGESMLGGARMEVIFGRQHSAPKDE

variants of: B1; assay: enrichment ratio after two sorts for PhoP signalling (ratio (wild type AVST 3.29)); higher = more functional; settings: with PhoP (E. coli)
Over roughly 140,000 sequences, “enrichment ratio after two sorts for PhoP signalling” has its median near 0; the highest 2% begin near 11. For the sample, the highest values were picked, then their nearest neighbours and some sequences at random.
endpoint name: enrichment ratio

INSERT INTO results (mutant_name, endpoint_name, result) VALUES
  ('NNTR', 'enrichment ratio', '≤ 0.25'),
  ('YWDR', 'enrichment ratio', '≤ 0.25'),
  ('IAEM', 'enrichment ratio', '≤ 0.25'),
  ('DCTH', 'enrichment ratio', '≤ 0.25'),
  ('ANIG', 'enrichment ratio', 29.2),
  ('FEPL', 'enrichment ratio', '≤ 0.25'),
  ('PLTG', 'enrichment ratio', '≤ 0.25'),
  ('ATSW', 'enrichment ratio', 1.32),
  ('TAGE', 'enrichment ratio', '≤ 0.25'),
  ('KYNG', 'enrichment ratio', '≤ 0.25'),
  ('FWCS', 'enrichment ratio', 1.37),
  ('RDWY', 'enrichment ratio', '≤ 0.25'),
  ('QACK', 'enrichment ratio', '≤ 0.25'),
  ('TARM', 'enrichment ratio', '≤ 0.25'),
  ('SIGG', 'enrichment ratio', 6.86),
  ('KANE', 'enrichment ratio', '≤ 0.25'),
  ('TATI', 'enrichment ratio', 5.19),
  ('HQRF', 'enrichment ratio', '≤ 0.25'),
  ('RVHQ', 'enrichment ratio', '≤ 0.25'),
  ('IIQY', 'enrichment ratio', '≤ 0.25'),
  ('FANK', 'enrichment ratio', '≤ 0.25'),
  ('KLEK', 'enrichment ratio', '≤ 0.25'),
  ('SING', 'enrichment ratio', 13.7),
  ('YNRN', 'enrichment ratio', '≤ 0.25'),
  ('FVFS', 'enrichment ratio', '≤ 0.25'),
  ('RQIY', 'enrichment ratio', '≤ 0.25'),
  ('HLPY', 'enrichment ratio', '≤ 0.25'),
  ('WLTG', 'enrichment ratio', '≤ 0.25'),
  ('DDIA', 'enrichment ratio', '≤ 0.25'),
  ('TING', 'enrichment ratio', 13.9),
  ('TAAM', 'enrichment ratio', 13.6),
  ('NING', 'enrichment ratio', '≤ 0.25');
